Reported values of normalised response for individual entries
Tested on: HCC1937
ASSAY_OVERVIEW: normalised response (% of control), CellTiter-Glo; higher = more viable cells (100 = DMSO, 0 = benzethonium chloride kill control)
CONDITION_SUMMARY: incubation time: 72 h
All answers are understood in %, so give the number only.

COMPOUND: CC[C@H](C)C(=O)O[C@H]1C[C@H](O)C=C2C=C[C@H](C)[C@H](CC[C@@H](O)C[C@@H](O)CC(=O)O)[C@H]21 [Pravastatin] (1000 nM)
UNIT_ABBREV: %
QUANTITATIVE_RESULT: 86.9
//
COMPOUND: CNC(=O)c1cc(Oc2ccc(NC(=O)Nc3cc(C(C)(C)C)nn3-c3ccc4ncccc4c3)c(F)c2)ccn1 [Rebastinib] (1 nM)
UNIT_ABBREV: %
QUANTITATIVE_RESULT: 97.6
//
COMPOUND: C[C@H]1C[C@@H]2[C@H]([C@@H](O)C[C@@]3(C)[C@H]2CC[C@]3(O)C(=O)CO)[C@@]2(C)C=CC(=O)C=C12 [Methylprednisolone] (10 nM)
UNIT_ABBREV: %
QUANTITATIVE_RESULT: 101
//
COMPOUND: CCc1cncnc1N1CCN(Cc2nc3ccc(C(F)(F)F)cc3[nH]2)CC1 (10 nM)
UNIT_ABBREV: %
QUANTITATIVE_RESULT: 98.1
//
COMPOUND: O=C(O)CCCCC(CCSCc1ccccc1)SCc1ccccc1 (stereo unspecified) [CPI-613] (1000 nM)
UNIT_ABBREV: %
QUANTITATIVE_RESULT: 101
//
COMPOUND: Nc1ccccc1NC(=O)c1ccc(CNC(=O)OCc2cccnc2)cc1 [Entinostat] (1000 nM)
UNIT_ABBREV: %
QUANTITATIVE_RESULT: 87.8
//
COMPOUND: C=CC(=O)N1CCC[C@@H](n2nc(-c3ccc(Oc4ccccc4)cc3)c3c(N)ncnc32)C1 [Ibrutinib] (1 nM)
UNIT_ABBREV: %
QUANTITATIVE_RESULT: 95.3
//
COMPOUND: CC[C@H](Nc1ncnc2[nH]cnc12)c1nc2cccc(F)c2c(=O)n1-c1ccccc1 [GS-1101] (10 nM)
UNIT_ABBREV: %
QUANTITATIVE_RESULT: 92.3
//
COMPOUND: O=C(O)C(=O)O.[NH-][C@@H]1CCCC[C@H]1[NH-].[Pt+2] [Oxaliplatin] (10 nM)
UNIT_ABBREV: %
QUANTITATIVE_RESULT: 94.8
//
COMPOUND: O=C(O)C(=O)O.[NH-][C@@H]1CCCC[C@H]1[NH-].[Pt+2] [Oxaliplatin] (1 nM)
UNIT_ABBREV: %
QUANTITATIVE_RESULT: 93.9

Now consider a different compound.
Given COc1cc2c(NC3CCN(C(C)C)CC3)nc(C3CCCCC3)nc2cc1OCCCN1CCCC1 [UNC0638] (10 nM) , respond with its normalised response. 96.6
